Origin of values: patent US12371428B2

# STUDY_SYSTEM: KDR (phospho-KDR, VEGF165-stimulated HUVEC cells) (Homo sapiens (Human))
# PROTOCOL_NOTES: KDR autophosphorylation ELISA in HUVEC cells (Example G)
# Assay type: cell-based
# CONDITION_DETAILS: cellular activity; KDR autophosphorylation ELISA in HUVEC cells
For each entry below, report its IC50 value.

Per the record, COc1cc2nccc(Oc3ccc(NC(=O)c4ccc(C)n(-c5ccc(F)cc5)c4=O)cc3)c2nc1OC has IC50 of < 100 nM

Per the record, COc1nc2c(Oc3ccc(NC(=O)c4cncc(-c5ccc(F)cc5)c4O)cc3F)ccnc2cc1Br has IC50 of < 100 nM

Per the record, COc1ccc2nccc(Oc3ccc(NC(=O)c4cnc(CO)c(-c5ccc(F)cc5)c4O)cc3F)c2n1 has IC50 of < 100 nM

Per the record, COc1cnc2c(Oc3ccc(NC(=O)c4cncc(-c5ccc(F)cc5)c4O)cc3F)ccnc2c1 has IC50 of < 100 nM

Per the record, COc1ccc2nccc(Oc3ccc(NC(=O)c4nccn(-c5ccc(F)cc5)c4=O)cc3)c2n1 has IC50 of > 300 nM

Per the record, Cc1nc(C)c(-c2ccc(F)cc2)c(O)c1C(=O)Nc1ccc(Oc2ccnc3cc(C(C)C)cnc23)cc1 has IC50 of < 100 nM

Per the record, COc1cc2nccc(Oc3ccc(NC(=O)c4c(C)n(C)c(C)c(-c5ccc(F)cc5C)c4=O)cc3)c2nc1OC has IC50 of > 300 nM

Per the record, COc1cnc2c(Oc3ccc(NC(=O)c4cn(CC(F)F)c(C)c(-c5ccc(F)cc5C)c4=O)cc3)ccnc2c1 has IC50 of > 300 nM

Per the record, COc1cc2nccc(Oc3ccc(NC(=O)c4ncc(C)n(-c5ccc(F)cc5)c4=O)cc3)c2nc1OC has IC50 of < 100 nM

Per the record, C=C(C)c1cnc2c(Oc3ccc(NC(=O)c4c(C)cc(C)n(-c5ccc(F)cc5)c4=O)cc3F)ccnc2c1 has IC50 of < 100 nM

Per the record, COc1cc2nccc(Oc3cc(F)c(NC(=O)c4cn(C)c(C)c(-c5ccc(F)cc5)c4=O)cc3F)c2nc1OC has IC50 of > 300 nM

Per the record, COc1nc2c(Oc3ccc(NC(=O)c4cn(C(C)C)c(C)c(-c5ccc(F)cc5)c4=O)cc3F)ccnc2cc1-c1cnn(C(F)F)c1 has IC50 of < 100 nM

Per the record, CNC(=O)c1cc2c(Oc3ccc(NC(=O)c4c5n(cc(-c6ccc(F)cc6)c4=O)CCC5)cc3F)ccnc2cc1OC has IC50 of < 100 nM

Per the record, COc1nc2c(Oc3ccc(NC(=O)c4cnc(C)c(-c5ccc(F)cc5C)c4O)cc3F)ccnc2cc1C has IC50 of < 100 nM

Per the record, COc1cnc2c(Oc3ccc(NC(=O)c4nnc(C)c(-c5ccc(F)cc5)c4OC(C)C)cc3F)ccnc2c1 has IC50 of < 100 nM

---

# STUDY_SYSTEM: Human KDR (residues 790-1356) (Homo sapiens (Human), UniProt P35968)
# Sequence (P35968 790-1356): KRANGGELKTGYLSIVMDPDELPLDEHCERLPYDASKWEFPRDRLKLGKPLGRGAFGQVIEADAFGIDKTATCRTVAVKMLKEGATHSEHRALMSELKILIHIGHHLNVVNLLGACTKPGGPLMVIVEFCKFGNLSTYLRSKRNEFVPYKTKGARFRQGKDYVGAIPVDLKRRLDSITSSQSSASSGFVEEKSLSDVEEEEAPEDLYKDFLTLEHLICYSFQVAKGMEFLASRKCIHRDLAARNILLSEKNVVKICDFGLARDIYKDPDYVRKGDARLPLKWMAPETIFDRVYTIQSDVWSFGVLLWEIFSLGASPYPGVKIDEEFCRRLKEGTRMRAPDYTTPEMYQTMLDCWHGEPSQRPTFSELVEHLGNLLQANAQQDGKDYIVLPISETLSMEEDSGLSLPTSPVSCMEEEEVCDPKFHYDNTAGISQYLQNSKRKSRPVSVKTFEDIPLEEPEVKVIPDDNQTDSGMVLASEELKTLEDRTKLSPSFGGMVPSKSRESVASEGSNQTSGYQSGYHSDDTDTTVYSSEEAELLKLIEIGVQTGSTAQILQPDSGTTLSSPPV
# PROTOCOL_NOTES: Human KDR kinase assay, HTRF KinEase (Example B-2)
# Format: biochemical
# CONDITION_DETAILS: protocol of Example B-2
pIC50: −log10 of the molar value.
For each entry below, report its pIC50 value.

Per the record, C=C(C)c1cnc2c(Oc3ccc(NC(=O)c4c(C)nc(C)c(-c5ccc(F)cc5)c4O)cc3F)ccnc2c1 [Compound 451] has pIC50 of > 7.00

Per the record, CCc1nc2c(Oc3ccc(NC(=O)c4cn(C(C)C)c(C)c(-c5ccc(F)cc5)c4=O)cc3F)ccnc2cc1OC [Compound 588] has pIC50 of < 6.52

Per the record, COc1cc2nccc(Oc3ccc(NC(=O)c4cn(C)c(CF)c(-c5ccc(F)cc5)c4=O)cc3)c2nc1OC [Compound 560] has pIC50 of < 6.52

Per the record, Cc1ncc(C(=O)Nc2ccc(Oc3ccnc4cc(C(N)=O)cnc34)c(F)c2)c(O)c1-c1ccc(F)cc1 [Compound 577] has pIC50 of > 7.00

---

For each entry below, report its IC50 value.
# STUDY_SYSTEM: KDR (phospho-KDR, VEGF165-stimulated HUVEC cells) (Homo sapiens (Human), UniProt P35968)
# Sequence (P35968 20-1356): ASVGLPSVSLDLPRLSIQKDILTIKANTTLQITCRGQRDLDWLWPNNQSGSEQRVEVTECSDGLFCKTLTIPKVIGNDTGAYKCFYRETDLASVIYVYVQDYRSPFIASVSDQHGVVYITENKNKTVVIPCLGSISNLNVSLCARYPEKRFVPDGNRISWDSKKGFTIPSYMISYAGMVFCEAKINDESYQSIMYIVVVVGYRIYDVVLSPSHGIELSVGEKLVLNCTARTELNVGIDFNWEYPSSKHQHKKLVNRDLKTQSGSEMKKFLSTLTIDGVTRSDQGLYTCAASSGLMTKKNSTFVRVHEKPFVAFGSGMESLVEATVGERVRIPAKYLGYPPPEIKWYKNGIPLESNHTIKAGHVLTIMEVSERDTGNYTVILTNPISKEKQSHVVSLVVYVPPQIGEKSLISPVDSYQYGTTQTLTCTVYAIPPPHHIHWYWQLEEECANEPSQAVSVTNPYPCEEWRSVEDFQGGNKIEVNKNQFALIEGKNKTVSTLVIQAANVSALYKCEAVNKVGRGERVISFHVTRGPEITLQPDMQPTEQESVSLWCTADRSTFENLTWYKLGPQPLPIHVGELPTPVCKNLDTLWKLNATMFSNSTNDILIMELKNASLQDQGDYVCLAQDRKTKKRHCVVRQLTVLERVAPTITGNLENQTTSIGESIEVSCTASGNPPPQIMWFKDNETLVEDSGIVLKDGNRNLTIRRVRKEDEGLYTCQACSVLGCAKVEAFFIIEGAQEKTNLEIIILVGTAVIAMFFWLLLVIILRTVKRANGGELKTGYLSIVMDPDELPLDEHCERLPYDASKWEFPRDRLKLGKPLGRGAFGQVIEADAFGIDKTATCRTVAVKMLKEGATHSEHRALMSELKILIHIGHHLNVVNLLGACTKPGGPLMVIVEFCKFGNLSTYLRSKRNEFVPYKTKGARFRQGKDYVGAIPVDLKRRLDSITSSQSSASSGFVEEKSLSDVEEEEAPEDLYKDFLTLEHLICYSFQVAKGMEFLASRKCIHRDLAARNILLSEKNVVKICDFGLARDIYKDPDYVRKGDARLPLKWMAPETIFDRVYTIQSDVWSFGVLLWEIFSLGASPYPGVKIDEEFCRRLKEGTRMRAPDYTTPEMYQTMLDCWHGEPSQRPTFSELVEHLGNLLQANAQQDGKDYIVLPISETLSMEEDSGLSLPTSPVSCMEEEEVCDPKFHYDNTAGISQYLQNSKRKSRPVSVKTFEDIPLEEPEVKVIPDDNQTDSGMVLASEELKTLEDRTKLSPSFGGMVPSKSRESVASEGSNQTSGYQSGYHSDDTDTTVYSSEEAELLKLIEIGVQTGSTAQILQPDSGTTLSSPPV
# PROTOCOL_NOTES: KDR autophosphorylation ELISA in HUVEC cells (Example G)
# Format: cell-based
# CONDITION_DETAILS: cellular activity, HUVEC cells

Per the record, COc1cnc2c(Oc3ccc(NC(=O)c4c(C)n(C)c(C)c(-c5ccc(F)c(C)c5)c4=O)cc3F)ccnc2c1 has IC50 of > 300 nM

Per the record, COc1cc2nccc(Oc3ccc(NC(=O)c4c(C)n(C)c(C)c(-c5ccc(F)c(F)c5)c4=O)cc3F)c2nc1OC has IC50 of > 300 nM

Per the record, COc1cnc2c(Oc3ccc(NC(=O)c4c(C)n(CC(F)F)cc(-c5ccc(F)cc5OC)c4=O)cc3F)ccnc2c1 has IC50 of < 100 nM

Per the record, COc1cc2nccc(Oc3ccc(NC(=O)c4c5n(cc(-c6ccc(F)cc6)c4=O)CCOC5)cc3F)c2nc1OC has IC50 of > 300 nM

Per the record, COc1cnc2c(Oc3ccc(NC(=O)c4c(C)n(CC(F)F)cc(-c5ccc(F)c(F)c5)c4=O)cc3F)ccnc2c1 has IC50 of > 300 nM

Per the record, COc1cnc2c(Oc3ccc(NC(=O)c4c(C)n(CCF)cc(-c5ccc(F)c(C)c5)c4=O)cc3F)ccnc2c1 has IC50 of 100 to 300 nM

Per the record, COc1cc2nccc(Oc3ccc(NC(=O)c4c(C)n(CC(F)F)cc(-c5ccc(F)c(F)c5)c4=O)cc3F)c2nc1OC has IC50 of > 300 nM

---

For each entry below, report its IC50 value.
# STUDY_SYSTEM: Met (phospho-Met, HGF-stimulated PC-3 prostate cancer cells) (Homo sapiens (Human), UniProt P08581)
# Sequence (P08581 25-1390): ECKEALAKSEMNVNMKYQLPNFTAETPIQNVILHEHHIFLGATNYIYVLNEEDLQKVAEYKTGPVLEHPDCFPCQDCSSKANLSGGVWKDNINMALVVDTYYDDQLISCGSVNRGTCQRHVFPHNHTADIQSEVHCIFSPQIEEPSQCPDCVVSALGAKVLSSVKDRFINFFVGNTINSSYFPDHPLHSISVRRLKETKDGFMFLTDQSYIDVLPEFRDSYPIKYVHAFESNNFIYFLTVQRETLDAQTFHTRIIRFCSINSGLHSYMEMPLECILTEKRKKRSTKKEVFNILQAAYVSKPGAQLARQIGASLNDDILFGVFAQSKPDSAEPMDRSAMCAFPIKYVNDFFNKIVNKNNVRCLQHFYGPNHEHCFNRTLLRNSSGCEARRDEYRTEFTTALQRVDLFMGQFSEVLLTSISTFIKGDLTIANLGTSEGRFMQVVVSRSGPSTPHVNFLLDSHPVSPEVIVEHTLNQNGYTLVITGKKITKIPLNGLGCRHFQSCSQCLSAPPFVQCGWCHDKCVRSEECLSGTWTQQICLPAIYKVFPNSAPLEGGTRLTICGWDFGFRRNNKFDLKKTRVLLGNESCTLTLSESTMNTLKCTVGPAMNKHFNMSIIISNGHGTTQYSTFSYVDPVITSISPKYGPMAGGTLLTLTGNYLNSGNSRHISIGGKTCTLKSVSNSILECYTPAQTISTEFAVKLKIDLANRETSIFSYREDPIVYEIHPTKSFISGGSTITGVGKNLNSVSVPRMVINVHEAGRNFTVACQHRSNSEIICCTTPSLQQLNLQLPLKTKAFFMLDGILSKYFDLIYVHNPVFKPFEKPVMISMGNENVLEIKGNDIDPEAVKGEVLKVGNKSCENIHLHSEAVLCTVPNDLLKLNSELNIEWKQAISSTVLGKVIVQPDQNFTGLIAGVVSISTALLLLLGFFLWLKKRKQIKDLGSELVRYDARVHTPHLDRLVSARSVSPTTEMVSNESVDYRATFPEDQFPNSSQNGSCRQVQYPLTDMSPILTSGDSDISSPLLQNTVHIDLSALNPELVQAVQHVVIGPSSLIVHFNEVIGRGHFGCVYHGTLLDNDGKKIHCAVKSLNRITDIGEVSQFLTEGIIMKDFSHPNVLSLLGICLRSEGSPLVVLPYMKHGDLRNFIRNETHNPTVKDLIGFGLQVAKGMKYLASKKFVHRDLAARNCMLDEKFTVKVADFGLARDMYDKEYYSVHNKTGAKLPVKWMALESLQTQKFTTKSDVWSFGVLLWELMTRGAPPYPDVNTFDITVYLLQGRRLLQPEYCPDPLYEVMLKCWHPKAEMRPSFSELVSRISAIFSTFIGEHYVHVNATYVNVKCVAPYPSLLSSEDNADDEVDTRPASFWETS
# PROTOCOL_NOTES: Met autophosphorylation ELISA in PC-3 cells (Example F)
# Format: cell-based
# CONDITION_DETAILS: cellular activity; Met autophosphorylation ELISA in PC-3 cells; read-out: c-Met IC50
Counter-ions that a name gives are not always drawn.

Per the record, COc1cc2nccc(Oc3ccc(NC(=O)c4cn(C)c(CO)c(-c5ccc(F)cc5C)c4=O)cc3F)c2nc1OC [Compound 282] has IC50 of < 100 nM

Per the record, Cc1ncc(C(=O)Nc2ccc(Oc3ccnc4cc(-c5cnn(C(F)F)c5)cnc34)c(F)c2)c(O)c1-c1ccc(F)cc1 [Compound 610, hydrochloride] has IC50 of < 100 nM

Per the record, Cc1nc2c(Oc3ccc(NC(=O)c4cnc(C)c(-c5ccc(F)cc5)c4O)cc3F)ccnc2cc1-c1cnn(C(F)F)c1 [Compound 615, hydrochloride] has IC50 of < 100 nM

Per the record, COc1cc2nccc(Oc3ccc(NC(=O)c4cn(C)cc(-c5cccc(F)c5)c4=O)cc3F)c2nc1OC [Compound 35, hydrochloride] has IC50 of < 100 nM

Per the record, COc1cc2nccc(Oc3ccc(NC(=O)c4nnc(C)c(-c5ccc(F)cc5)c4OC)cc3)c2nc1OC [Compound 534] has IC50 of < 100 nM

Per the record, COc1cc2nccc(Oc3ccc(NC(=O)c4cn(CCn5ccnc5)cc(-c5ccc(F)cc5)c4=O)cc3F)c2nc1OC [Compound 159] has IC50 of 100 to 300 nM

Per the record, COc1ccc2c(Oc3ccc(NC(=O)c4cnc(C)c(-c5ccc(F)cc5)c4O)cc3)ccnc2c1 [Compound 108] has IC50 of 100 to 300 nM

---

# STUDY_SYSTEM: Human MER (residues 528-999) (Homo sapiens (Human), UniProt Q12866)
# Sequence (Q12866 528-999): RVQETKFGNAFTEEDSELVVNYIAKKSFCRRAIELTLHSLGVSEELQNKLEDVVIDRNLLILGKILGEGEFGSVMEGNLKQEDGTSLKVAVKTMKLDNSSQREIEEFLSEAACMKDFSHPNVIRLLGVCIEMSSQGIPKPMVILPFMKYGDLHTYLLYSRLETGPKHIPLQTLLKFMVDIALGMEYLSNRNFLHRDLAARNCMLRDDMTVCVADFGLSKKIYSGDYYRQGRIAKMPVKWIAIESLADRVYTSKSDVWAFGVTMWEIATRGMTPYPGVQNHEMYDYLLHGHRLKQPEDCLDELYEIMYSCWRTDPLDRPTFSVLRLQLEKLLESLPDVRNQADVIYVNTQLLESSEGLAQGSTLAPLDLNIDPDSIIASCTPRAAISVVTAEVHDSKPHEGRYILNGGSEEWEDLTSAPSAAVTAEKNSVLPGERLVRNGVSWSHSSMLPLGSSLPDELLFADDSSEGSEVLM
# PROTOCOL_NOTES: Human Mer kinase assay, HTRF KinEase (Example C-2)
# Assay type: biochemical
# CONDITION_DETAILS: protocol of Example C-2
Where a name gives a salt, the structure may show the parent alone.
MEASURED_QUANTITY: IC50

Per the record, COc1cc2nccc(Oc3ccc(NC(=O)c4cnc(SC(C)C)n(-c5ccc(F)cc5)c4=O)cc3)c2cc1OC [Compound 539] has IC50 of < 100 nM

Per the record, Cc1nc2c(Oc3ccc(NC(=O)c4cn(C(C)C)c(C)c(-c5ccc(F)cc5)c4=O)cc3)ccnc2cc1-c1cnn(C(F)F)c1 [Compound 612, hydrochloride] has IC50 of < 100 nM

Per the record, Cc1nc2c(Oc3ccc(NC(=O)c4cnc(C)c(-c5ccc(F)cc5)c4O)cc3)ccnc2cc1-c1cccnc1 [Compound 616, hydrochloride] has IC50 of < 100 nM
